This collection of values is drawn from the RNAGym collection of RNA variant scans (doi:10.1126/science.aae0568).

B1: tRNA (parent)
chain: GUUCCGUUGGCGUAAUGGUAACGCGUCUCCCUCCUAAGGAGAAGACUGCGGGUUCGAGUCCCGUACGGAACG

variants of: B1; assay: yeast fitness relative to wild type (ratio to wild type); higher = fitter; tRNA-Arg(CCU), competitive growth, 37 C, YPD
This sample holds only a part of the variants without activity.

{"MUTATION_STRING": "G25A A37U A40C", "QUALIFYING_SIGN": "=", "yeast fitness": 0.68}
{"MUTATION_STRING": "U32A A40C", "QUALIFYING_SIGN": "=", "yeast fitness": 0.694}
{"MUTATION_STRING": "U26C C31A C66G", "QUALIFYING_SIGN": "≤", "yeast fitness": 0.5}
{"MUTATION_STRING": "C5A C34G C49G A65G", "QUALIFYING_SIGN": "≤", "yeast fitness": 0.5}
{"MUTATION_STRING": "U7A A40C", "QUALIFYING_SIGN": "=", "yeast fitness": 0.724}
{"MUTATION_STRING": "C4G A14G C24G", "QUALIFYING_SIGN": "≤", "yeast fitness": 0.5}
{"MUTATION_STRING": "A20G U26C", "QUALIFYING_SIGN": "=", "yeast fitness": 0.984}
{"MUTATION_STRING": "A15U G39A A57U C62G", "QUALIFYING_SIGN": "=", "yeast fitness": 0.502}
{"MUTATION_STRING": "U3A A36G A42C", "QUALIFYING_SIGN": "=", "yeast fitness": 0.647}
{"MUTATION_STRING": "U7A G17A A45C U47A G50A", "QUALIFYING_SIGN": "≤", "yeast fitness": 0.5}
{"MUTATION_STRING": "A20U C22G U47C", "QUALIFYING_SIGN": "≤", "yeast fitness": 0.5}
{"MUTATION_STRING": "G18A C62G G68U", "QUALIFYING_SIGN": "≤", "yeast fitness": 0.5}
{"MUTATION_STRING": "C11U G39C C62U G63C", "QUALIFYING_SIGN": "≤", "yeast fitness": 0.5}
{"MUTATION_STRING": "A20C C30U G68A", "QUALIFYING_SIGN": "≤", "yeast fitness": 0.5}
{"MUTATION_STRING": "C46G G67A", "QUALIFYING_SIGN": "=", "yeast fitness": 0.912}
{"MUTATION_STRING": "C5A U35C G44A G48C C55G A70C", "QUALIFYING_SIGN": "≤", "yeast fitness": 0.5}
{"MUTATION_STRING": "G17A A70U", "QUALIFYING_SIGN": "=", "yeast fitness": 0.864}
{"MUTATION_STRING": "C11U A14G C24G", "QUALIFYING_SIGN": "≤", "yeast fitness": 0.5}
{"MUTATION_STRING": "U2G U35C A42C U47A G63C A69C", "QUALIFYING_SIGN": "≤", "yeast fitness": 0.5}
{"MUTATION_STRING": "U16C C29A C55G A70U", "QUALIFYING_SIGN": "≤", "yeast fitness": 0.5}
{"MUTATION_STRING": "U26A C27A U28A C34U G68A A69C", "QUALIFYING_SIGN": "=", "yeast fitness": 0.534}
{"MUTATION_STRING": "A20C C55U", "QUALIFYING_SIGN": "=", "yeast fitness": 0.612}
{"MUTATION_STRING": "G23A C29G U64A", "QUALIFYING_SIGN": "≤", "yeast fitness": 0.5}
{"MUTATION_STRING": "C4A A15C U28C C34G", "QUALIFYING_SIGN": "≤", "yeast fitness": 0.5}
{"MUTATION_STRING": "C11U A21G C55G", "QUALIFYING_SIGN": "=", "yeast fitness": 0.566}
{"MUTATION_STRING": "C29G A43U C46U G67C", "QUALIFYING_SIGN": "≤", "yeast fitness": 0.5}
{"MUTATION_STRING": "A20U C31G A69C", "QUALIFYING_SIGN": "≤", "yeast fitness": 0.5}
{"MUTATION_STRING": "C34U A40G U54C A57G", "QUALIFYING_SIGN": "≤", "yeast fitness": 0.5}
{"MUTATION_STRING": "U8C U32G C49G", "QUALIFYING_SIGN": "≤", "yeast fitness": 0.5}
{"MUTATION_STRING": "C34G G39C", "QUALIFYING_SIGN": "=", "yeast fitness": 0.58}
{"MUTATION_STRING": "G18A C49U U54C", "QUALIFYING_SIGN": "=", "yeast fitness": 0.539}
{"MUTATION_STRING": "U2A C31G", "QUALIFYING_SIGN": "=", "yeast fitness": 0.864}
{"MUTATION_STRING": "U13A C29U", "QUALIFYING_SIGN": "=", "yeast fitness": 0.786}
{"MUTATION_STRING": "C33A G50A", "QUALIFYING_SIGN": "=", "yeast fitness": 0.545}
{"MUTATION_STRING": "C11G G18A C24U G58A A70G", "QUALIFYING_SIGN": "≤", "yeast fitness": 0.5}
{"MUTATION_STRING": "C4U U19A C30G A36C", "QUALIFYING_SIGN": "=", "yeast fitness": 0.55}
{"MUTATION_STRING": "U2G A21G C49U", "QUALIFYING_SIGN": "=", "yeast fitness": 0.708}
{"MUTATION_STRING": "G17A C22U A45G C46U A69U", "QUALIFYING_SIGN": "=", "yeast fitness": 0.603}
{"MUTATION_STRING": "C30U U47A C66A", "QUALIFYING_SIGN": "≤", "yeast fitness": 0.5}
{"MUTATION_STRING": "U3A C5A G6C A15G U16A G67U", "QUALIFYING_SIGN": "≤", "yeast fitness": 0.5}
{"MUTATION_STRING": "U28A G41A G67A", "QUALIFYING_SIGN": "≤", "yeast fitness": 0.5}
{"MUTATION_STRING": "C27U U28A U32A C34U A36C C55A A65C A70C", "QUALIFYING_SIGN": "≤", "yeast fitness": 0.5}
{"MUTATION_STRING": "G23U", "QUALIFYING_SIGN": "=", "yeast fitness": 0.779}
{"MUTATION_STRING": "A14G A15C U26A G48C C49U U59C", "QUALIFYING_SIGN": "≤", "yeast fitness": 0.5}
{"MUTATION_STRING": "U3A G6A G25C A43C", "QUALIFYING_SIGN": "=", "yeast fitness": 0.614}
{"MUTATION_STRING": "C4U C11G C34U G56A", "QUALIFYING_SIGN": "≤", "yeast fitness": 0.5}
